Origin of values: patent US20240116946A1

molecular target: recombinant SARS-CoV-2 Main protease (Mpro) (Severe acute respiratory syndrome coronavirus 2 (2019-nCoV) (SARS-CoV-2)); test: Cov Mpro Biochemical IC50 Assay; conditions: recombinant SARS-CoV-2 Mpro, fluorogenic peptide substrate; read-out: MPro IC50
pIC50: −log10 of the molar value.
We use 7 as the dividing line for pIC50: on or above the line is 1, below is 0.

Sample answers from the record:
{"mol": "COc1cccc(C(N)=O)c1-c1ccc2c(=O)n(-c3cncc4ccccc34)c(=O)[nH]c2c1", "classification": 0}
{"mol": "Cc1c(-c2cccc(Cl)c2-c2ccc3c(=O)n(-c4cncc5ccccc45)c(=O)[nH]c3c2)cnn1C", "classification": 1}
{"mol": "O=c1[nH]c2cc(-c3ccccc3)c(F)cc2c(=O)n1-c1cncc2ccccc12", "classification": 0}

// next entry
Request: API: above_or_equal(metric=pIC50, cutoff=7) for item `N#Cc1ccc(Cl)c(-c2ccc3c(=O)n(-c4cncc5ccccc45)c(=O)[nH]c3c2)c1`
Response: 1
